B1: TPD52L1 (parent)
chain: ISKKFGDMSYSIRHSISMPAMRNS

Variants of: B1
protocolDescription: protein stability index of a GFP-peptide fusion (GPS, HEK-293T) (PSI 1-6); higher = more stable;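 further: lentivirally expressed fusions sorted by FACS into six bins by GFP to DsRed ratio, PSI derived from sequencing read proportions per bin multiplied by bin number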
experimentalConditions: c terminus: a fixed tail appended

[
  {
    "mutationId": "R13T",
    "protein stability index": 2.01
  },
  {
    "mutationId": "K4V",
    "protein stability index": 2.01
  },
  {
    "mutationId": "I16W",
    "protein stability index": 1.97
  },
  {
    "mutationId": "R13S",
    "protein stability index": 2.02
  },
  {
    "mutationId": "S11E",
    "protein stability index": 1.97
  },
  {
    "mutationId": "M8C",
    "protein stability index": 1.96
  }
]
